target: Sentrin-specific protease 8 (Homo sapiens);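 also: luminescence read-out of SENP8 inhibition, dose-response confirmation following an ultra-high-throughput screen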
Sequence (Q96LD8 whole entry): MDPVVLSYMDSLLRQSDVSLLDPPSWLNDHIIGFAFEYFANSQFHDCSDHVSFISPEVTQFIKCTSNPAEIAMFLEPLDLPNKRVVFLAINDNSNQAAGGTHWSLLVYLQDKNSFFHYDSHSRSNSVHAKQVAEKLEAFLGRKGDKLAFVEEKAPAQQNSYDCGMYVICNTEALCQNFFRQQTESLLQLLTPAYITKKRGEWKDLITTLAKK
Type: functional
Active and inactive are the calls of the source.
Mark one answer only. Choices: yes (1) = active, no (0) = inactive

Problem: For "COc1ccc(C(=O)c2nccc3cc(OC)c(OC)cc23)cc1OC" , what call appears in the results of this test?
Result: yes (1)

Problem: For "NC(=O)c1ccccc1OCC(=O)Nc1ccc(Cl)c(Cl)c1" , what call appears in the results of this test?
Result: no (0)

Problem: For "CCOc1ccc(-n2nc3cc(C)c(N)cc3n2)cc1" , what call appears in the results of this test?
Result: yes (1)

Problem: For "O=C(O)c1cccc(NC(=O)c2cccc(S(=O)(=O)N3CCc4ccccc43)c2)c1" , what call appears in the results of this test?
Result: yes (1)

Problem: For "CCOc1cccc(C(=O)Nc2ccc3ccccc3c2)c1" , what call appears in the results of this test?
Result: yes (1)

Problem: For "COc1ccc2c(C#N)c3ccccn3c2c1" , what call appears in the results of this test?
Result: no (0)

Problem: For "O=C(CCCN1C(=O)S/C(=C/c2ccccc2)C1=S)Nc1ccc(C(=O)O)cc1" , what call appears in the results of this test?
Result: yes (1)
